Could you please report measured viability, T/C for the items listed next?
- System: 349418-098-R-PDC complex spheroid viability
- protocol_description: Anticancer human tumor 349418-098-R-PDC patient-derived lung adenocarcinoma cell line growth inhibition
- setup_conditions: second compound 0.1 µM; first compound 3 µM; stronger effect = lower value
Numbers only, in %.

Use the examples below as a reference point.
>>> experimental_value("Nc1ccccc1NC(=O)c1ccc(CNC(=O)OCc2cccnc2)cc1 + NC1CC1c1ccc(-c2cccc(O)c2)cc1")
3.26
>>> experimental_value("NS(=O)(=O)OCC1CC(n2ccc3c(NC4CCc5ccccc54)ncnc32)CC1O (stereo not given) + NC1CCC(NC2CC2c2ccccc2)CC1")
4.47
>>> experimental_value("CCN(c1cc(-c2ccc(CN3CCOCC3)cc2)cc(C(=O)NCc2c(C)cc(C)[nH]c2=O)c1C)C1CCOCC1 + NC1CCC(NC2CC2c2ccccc2)CC1")
60
>>> experimental_value("NS(=O)(=O)OCC1CC(n2ccc3c(NC4CCc5ccccc54)ncnc32)CC1O (stereo not given) + NC1CC1c1ccc(-c2cccc(O)c2)cc1")
4.99
>>> experimental_value("Nc1ccccc1NC(=O)c1ccc(CNC(=O)OCc2cccnc2)cc1 + NC1CCC(NC2CC2c2ccccc2)CC1")
5.1

// for each molecule in input: emit viability, T/C
1. O=C(C=Cc1cccc(S(=O)(=O)Nc2ccccc2)c1)NO + NC1CCC(NC2CC2c2ccccc2)CC1
2. COc1cc(C2c3cc4c(cc3C(OC3OC5COC(C)OC5C(O)C3O)C3COC(=O)C23)OCO4)cc(OC)c1O (stereo not given) + NC1CCC(NC2CC2c2ccccc2)CC1
3. COc1cc(C2c3cc4c(cc3C(OC3OC5COC(C)OC5C(O)C3O)C3COC(=O)C23)OCO4)cc(OC)c1O (stereo not given) + NC1CC1c1ccc(-c2cccc(O)c2)cc1
4. O=C(C=Cc1cccc(S(=O)(=O)Nc2ccccc2)c1)NO + NC1CC1c1ccc(-c2cccc(O)c2)cc1
5. CCN(c1cc(-c2ccc(CN3CCOCC3)cc2)cc(C(=O)NCc2c(C)cc(C)[nH]c2=O)c1C)C1CCOCC1 + NC1CC1c1ccc(-c2cccc(O)c2)cc1

Output:
1: 1.29; 2: 4.96; 3: 3.5; 4: 103; 5: 11.4

###

- Test system: 349418-098-R-PDC complex spheroid viability
- protocol_description: Anticancer human tumor 349418-098-R-PDC cell line growth inhibition;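 note: spheroids exposed to agents for seven days before readout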;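 for viability, T/C: 100% = DMSO vehicle control wells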
- setup_conditions: second compound 3.16 µM; first compound 3.16 µM; stronger effect = lower value
property_measured: viability, T/C (%)
Answers are plain numbers, in %.

Below: 5 compounds and their reported viability, T/C.
>>> experimental_value("COc1ccc([C@@H](O)c2cc(-c3ncnc4cc(N5CCOCC5)ccc34)c(F)cc2Cl)nn1 + NC1CC1c1ccc(-c2cccc(O)c2)cc1")
6.81
>>> experimental_value("CC1(C)CCC(CN2CCN(c3ccc(C(=O)NS(=O)(=O)c4ccc(NCC5CCOCC5)c([N+](=O)[O-])c4)c(Oc4cnc5[nH]ccc5c4)c3)CC2)=C(c2ccc(Cl)cc2)C1 + NC1CC1c1ccc(-c2cccc(O)c2)cc1")
21.9
>>> experimental_value("O=C(c1cc(Cc2n[nH]c(=O)c3ccccc23)ccc1F)N1CCN(C(=O)C2CC2)CC1 + NC1CC1c1ccc(-c2cccc(O)c2)cc1")
75.5
>>> experimental_value("CC1COCCN1c1cc(C2(S(C)(=N)=O)CC2)nc(-c2ccnc3[nH]ccc23)n1 (stereo not given) + NC1CC1c1ccc(-c2cccc(O)c2)cc1")
13.3
>>> experimental_value("CC(C)c1c(-c2ccccc2)nc2c(C#N)c[nH]n2c1=O + NC1CCC(NC2CC2c2ccccc2)CC1")
102

For each of the compounds below, state viability, T/C.
1. CC(C)c1c(-c2ccccc2)nc2c(C#N)c[nH]n2c1=O + NC1CC1c1ccc(-c2cccc(O)c2)cc1
2. O=C(c1cc(Cc2n[nH]c(=O)c3ccccc23)ccc1F)N1CCN(C(=O)C2CC2)CC1 + NC1CCC(NC2CC2c2ccccc2)CC1
3. CC1COCCN1c1cc(C2(S(C)(=N)=O)CC2)nc(-c2ccnc3[nH]ccc23)n1 (stereo not given) + NC1CCC(NC2CC2c2ccccc2)CC1
4. COc1ccc([C@@H](O)c2cc(-c3ncnc4cc(N5CCOCC5)ccc34)c(F)cc2Cl)nn1 + NC1CCC(NC2CC2c2ccccc2)CC1
5. CC1(C)CCC(CN2CCN(c3ccc(C(=O)NS(=O)(=O)c4ccc(NCC5CCOCC5)c([N+](=O)[O-])c4)c(Oc4cnc5[nH]ccc5c4)c3)CC2)=C(c2ccc(Cl)cc2)C1 + NC1CCC(NC2CC2c2ccccc2)CC1

Output:
[104, 64.6, 10.3, 10.9, 67.7]

###

- System: 349418-098-R-PDC complex spheroid viability
- protocol_description: Anticancer human tumor 349418-098-R-PDC cell line growth inhibition;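 note: spheroids exposed to agents for seven days before readout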;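 for viability, T/C: 100% = DMSO vehicle control wells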
- setup_conditions: second compound 10 µM; first compound 3 µM; stronger effect = lower value
property_measured: viability, T/C (%)
One number for each entry, in %.

Use the examples below as a reference point.
>>> experimental_value("O=C(C=Cc1cccc(S(=O)(=O)Nc2ccccc2)c1)NO + NC1CC1c1ccc(-c2cccc(O)c2)cc1")
58.3
>>> experimental_value("O=C(C=Cc1cccc(S(=O)(=O)Nc2ccccc2)c1)NO + NC1CCC(NC2CC2c2ccccc2)CC1")
0.5
>>> experimental_value("COc1cc(C2c3cc4c(cc3C(OC3OC5COC(C)OC5C(O)C3O)C3COC(=O)C23)OCO4)cc(OC)c1O (configuration not stated) + NC1CCC(NC2CC2c2ccccc2)CC1")
5.24

Below is a list of compounds. For each, state its recorded viability, T/C.
1. NS(=O)(=O)OCC1CC(n2ccc3c(NC4CCc5ccccc54)ncnc32)CC1O (configuration not stated) + NC1CCC(NC2CC2c2ccccc2)CC1
2. Nc1ccccc1NC(=O)c1ccc(CNC(=O)OCc2cccnc2)cc1 + NC1CCC(NC2CC2c2ccccc2)CC1
3. Nc1ccccc1NC(=O)c1ccc(CNC(=O)OCc2cccnc2)cc1 + NC1CC1c1ccc(-c2cccc(O)c2)cc1

Output:
4.12
4.33
2.77

Input: If you can, please state the reported viability, T/C value of CCN(c1cc(-c2ccc(CN3CCOCC3)cc2)cc(C(=O)NCc2c(C)cc(C)[nH]c2=O)c1C)C1CCOCC1 + NC1CCC(NC2CC2c2ccccc2)CC1 .
Output: 34.5

###

Assignment: determine reported pIC50 for the given molecules.
- System: 349418-098-R-PDC complex spheroid viability
- protocol_description: Anticancer human tumor 349418-098-R-PDC cell line growth inhibition;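 note: spheroids exposed to agents for seven days before readout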
- setup_conditions: curve of first compound; second compound 1 µM
pIC50: −log10 of the molar value.

Check out these entries, answers already filled in.
>>> experimental_value("Cn1ncnc1C1c2n[nH]c(=O)c3cc(F)cc(c23)NC1c1ccc(F)cc1 (stereo not drawn) + NC1CCC(NC2CC2c2ccccc2)CC1")
"< 7.00"
>>> experimental_value("CCc1c2c(nc3ccc(O)cc13)-c1cc3c(c(=O)n1C2)COC(=O)[C@]3(O)CC + NC1CCC(NC2CC2c2ccccc2)CC1")
"> 9.02"

Input: Please look up its pIC50: CC(C)c1c(-c2ccccc2)nc2c(C#N)c[nH]n2c1=O + NC1CC1c1ccc(-c2cccc(O)c2)cc1
Output: < 5.00

###

- Tested on: 349418-098-R-PDC complex spheroid viability
- protocol_description: Anticancer human tumor 349418-098-R-PDC cell line growth inhibition;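 note: spheroids exposed to agents for seven days before readout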
- setup_conditions: curve of first compound; second compound 1 µM
pIC50: −log10 of the molar value.
property_measured: pIC50

Batch request: pIC50 for each of the following molecules.
1. Cn1ncnc1C1c2n[nH]c(=O)c3cc(F)cc(c23)NC1c1ccc(F)cc1 (stereo unspecified) + NC1CC1c1ccc(-c2cccc(O)c2)cc1
2. CC(C)c1c(-c2ccccc2)nc2c(C#N)c[nH]n2c1=O + NC1CCC(NC2CC2c2ccccc2)CC1
3. Nc1ccn(C2OC(CO)C(O)C2(F)F)c(=O)n1 (stereo unspecified) + NC1CC1c1ccc(-c2cccc(O)c2)cc1
4. CC1COCCN1c1cc(-c2ccnn2C)c2ccnc(-c3ccn[nH]3)c2n1 (stereo unspecified) + NC1CC1c1ccc(-c2cccc(O)c2)cc1
5. CCc1c2c(nc3ccc(O)cc13)-c1cc3c(c(=O)n1C2)COC(=O)[C@]3(O)CC + NC1CC1c1ccc(-c2cccc(O)c2)cc1

Output:
1. < 7.00
2. < 5.00
3. > 9.02
4. > 8.50
5. > 9.02

Input: Endpoint output: pIC50 of Nc1ccn(C2OC(CO)C(O)C2(F)F)c(=O)n1 (stereo unspecified) + NC1CCC(NC2CC2c2ccccc2)CC1 . Value?
Output: > 9.02

###

- System: 349418-098-R-PDC complex spheroid viability
- protocol_description: Anticancer human tumor 349418-098-R-PDC cell line growth inhibition;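 note: spheroids exposed to agents for seven days before readout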;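 for viability, T/C: 100% = DMSO vehicle control wells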
- setup_conditions: second compound 10 µM; first compound 0.03 µM; stronger effect = lower value
property_measured: viability, T/C

>>> experimental_value("CCN(c1cc(-c2ccc(CN3CCOCC3)cc2)cc(C(=O)NCc2c(C)cc(C)[nH]c2=O)c1C)C1CCOCC1 + NC1CC1c1ccc(-c2cccc(O)c2)cc1")
"102%"
>>> experimental_value("O=C(C=Cc1cccc(S(=O)(=O)Nc2ccccc2)c1)NO + NC1CC1c1ccc(-c2cccc(O)c2)cc1")
"56.3%"
>>> experimental_value("Nc1ncn(C2CC(O)C(CO)S2)c(=O)n1 (stereo not given) + NC1CC1c1ccc(-c2cccc(O)c2)cc1")
"34.5%"
>>> experimental_value("CCc1c2c(nc3ccc(O)cc13)-c1cc3c(c(=O)n1C2)COC(=O)[C@]3(O)CC + NC1CC1c1ccc(-c2cccc(O)c2)cc1")
"1.31%"

Would you kindly look at the next entry?
Input: Which viability, T/C is reported with 349418-098-R-PDC complex spheroid viability for this entry: Nc1ccn(C2OC(CO)C(O)C2(F)F)c(=O)n1 (stereo not given) + NC1CC1c1ccc(-c2cccc(O)c2)cc1 ?
Output: 4.52%
